Biological target: T1, Recombinant CD71-ECD immobilised on the CM5 chip (SPR) (human, UniProt P02786 89-760)
T1 construct: Human transferrin receptor protein 1 (CD71), extracellular domain; source: recombinant
T1 sequence (P02786 89-760): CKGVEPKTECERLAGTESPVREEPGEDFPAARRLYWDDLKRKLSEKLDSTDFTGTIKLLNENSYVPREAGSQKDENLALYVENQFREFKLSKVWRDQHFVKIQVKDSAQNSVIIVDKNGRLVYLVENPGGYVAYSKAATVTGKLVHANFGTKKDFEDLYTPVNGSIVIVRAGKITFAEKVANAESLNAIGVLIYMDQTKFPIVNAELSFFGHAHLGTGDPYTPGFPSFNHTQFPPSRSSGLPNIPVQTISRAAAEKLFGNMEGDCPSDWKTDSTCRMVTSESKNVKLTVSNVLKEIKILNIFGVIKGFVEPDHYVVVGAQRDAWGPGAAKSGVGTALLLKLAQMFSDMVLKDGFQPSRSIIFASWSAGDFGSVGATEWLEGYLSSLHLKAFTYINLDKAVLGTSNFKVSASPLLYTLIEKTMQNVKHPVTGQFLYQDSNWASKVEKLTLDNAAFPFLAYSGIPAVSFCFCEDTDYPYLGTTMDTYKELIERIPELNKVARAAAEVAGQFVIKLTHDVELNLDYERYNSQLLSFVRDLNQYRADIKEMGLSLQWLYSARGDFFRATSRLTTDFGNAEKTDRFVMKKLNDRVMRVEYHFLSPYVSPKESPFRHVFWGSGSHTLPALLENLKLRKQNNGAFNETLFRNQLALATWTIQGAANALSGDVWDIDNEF
Assay: SPR; BIAcore S200; CD71-ECD coupled to CM5 chip (EDC/NHS, 10 mM NaAc pH 4.5); analyte PvMSP1P-19 6.25, 12.5, 25, 50 μM at 30 μl/min; 1:1 Langmuir model; apparent KD
Conditions: both partners purified

| binder | Kd [µM] |
| --- | --- |
| Plasmodium vivax merozoite surface protein 1 paralog, 19-kDa C-terminal region (PvMSP1P-19), Trx-His-Flag-tagged (domain or fragment, P. vivax merozoite surface protein 1 paralog (PvMSP1P, 1854 aa), PlasmoDB PVX_099975, aa 1749-1834 (two EGF-like domains); Migrates at ~36 kDa; also called Trx-His-PvMSP1P-19; His-MSP1P-19; source: E. coli BL21 (DE3) and SHuffle T7 E. coli, pET32a, soluble, purified by Talen Biotech) DRVEKNCRNRKCPLNSFCFIQTINEECLCLLNYSMVGEKCILNEQNSCAVKNGGCDLKATCELKKNRVNCICPKGTKPMHEGVVCS | 35.5 |

Numbers sourced from paper PMC11107369.
